# SYSTEM_TESTED: T1, human PCSK9 (PCSK9 antigen, SEQ ID NO. 53) (human, UniProt A8T644 31-152; Q8NBP7 153-692, Biotin-labelled on amines in the MSD-SET and sorting experiments; positions not given.)
# T1 construct: Biotin-labelled in MSD-SET; also called PCSK9-WT; PCSK9 protein
# TEST_SUMMARY: flow cytometry, PCSK9 left on CHO-LDLR cells (anti-His-FITC) after premix with 100 nM antibody
ENDPOINT_NAME: Fluorescence Signal Value
Note: the reply should be a number with no unit written.

BINDER	RECORDED_RESULT
Evolocumab (antibody, V domains shown) VH: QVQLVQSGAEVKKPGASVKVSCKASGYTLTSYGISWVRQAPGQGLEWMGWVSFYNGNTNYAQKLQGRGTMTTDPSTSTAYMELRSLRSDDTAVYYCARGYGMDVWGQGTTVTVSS VL: QSALTQPASVSGSPGQSITISCTGTSSDVGGYNSVSWYQQHPGKAPKLMIYEVSNRPSGVSNRFSGSKSGNTASLTISGLQAEDEADYYCNSYTSTSMVFGGGTKLTVL	5100

According to the records, this binder Bococizumab (antibody, V domains shown) VH: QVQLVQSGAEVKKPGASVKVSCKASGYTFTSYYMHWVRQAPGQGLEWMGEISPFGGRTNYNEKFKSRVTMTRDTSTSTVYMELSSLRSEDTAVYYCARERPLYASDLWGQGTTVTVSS VL: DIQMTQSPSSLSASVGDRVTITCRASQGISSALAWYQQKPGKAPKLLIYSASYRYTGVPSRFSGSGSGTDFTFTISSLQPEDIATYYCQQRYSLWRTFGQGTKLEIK displays Fluorescence Signal Value of 5310

According to the records, this binder ADI-10090 (antibody, human IgG2, kappa, V domains shown, IgG) VH: QLQLQESGPGLVKPSETLSLTCTVSGGSIWSSSYYWTWIRQPPGKGLEWIGSINYRGSTYYNPSLKSRVTISVDTSKNQFSLKLSSVTAADTAVYYCARENSGVVPAAGPNWFDPWGQGTLVTVSS VL: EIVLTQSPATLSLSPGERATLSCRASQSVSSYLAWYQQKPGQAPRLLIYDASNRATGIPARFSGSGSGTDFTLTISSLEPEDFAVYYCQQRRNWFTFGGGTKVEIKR displays Fluorescence Signal Value of 4810

According to the records, this binder ADI-10089 (antibody, human IgG2, kappa, V domains shown, IgG) VH: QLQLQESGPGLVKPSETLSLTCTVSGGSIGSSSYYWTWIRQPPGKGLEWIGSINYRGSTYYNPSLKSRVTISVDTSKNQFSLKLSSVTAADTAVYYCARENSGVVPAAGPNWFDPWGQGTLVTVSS VL: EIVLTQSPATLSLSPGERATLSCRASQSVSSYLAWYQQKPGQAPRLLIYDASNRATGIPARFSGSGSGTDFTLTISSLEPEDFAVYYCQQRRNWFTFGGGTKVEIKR displays Fluorescence Signal Value of 5140

According to the records, this binder ADI-10088 (antibody, human IgG2, kappa, V domains shown, IgG) VH: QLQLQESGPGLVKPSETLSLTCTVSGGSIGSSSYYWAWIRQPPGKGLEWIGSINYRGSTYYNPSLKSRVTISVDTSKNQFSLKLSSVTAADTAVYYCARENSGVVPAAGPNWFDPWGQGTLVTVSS VL: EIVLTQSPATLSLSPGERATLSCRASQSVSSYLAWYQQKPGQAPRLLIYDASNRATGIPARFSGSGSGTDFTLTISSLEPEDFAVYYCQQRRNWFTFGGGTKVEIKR displays Fluorescence Signal Value of 5160

According to the records, this binder ADI-10087 (antibody, human IgG2, kappa, V domains shown, also called anti-PCSK antibody of the invention) VH: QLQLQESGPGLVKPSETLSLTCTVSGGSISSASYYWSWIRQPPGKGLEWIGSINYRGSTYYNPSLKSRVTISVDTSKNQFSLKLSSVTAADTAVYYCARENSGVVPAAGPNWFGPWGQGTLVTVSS VL: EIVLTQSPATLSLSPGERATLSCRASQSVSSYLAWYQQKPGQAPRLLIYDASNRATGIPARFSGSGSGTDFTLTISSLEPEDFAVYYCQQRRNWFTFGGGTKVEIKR displays Fluorescence Signal Value of 5260

According to the records, this binder ADI-10086 (antibody, human IgG2, kappa, V domains shown, IgG) VH: QLQLQESGPGLVKPSETLSLTCTVSGGSIRSSAYYWGWIRQPPGKGLEWIGSINYRGSTYYNPSLKSRVTISVDTSKNQFSLKLSSVTAADTAVYYCARENSGVVPAAGPNWFGPWGQGTLVTVSS VL: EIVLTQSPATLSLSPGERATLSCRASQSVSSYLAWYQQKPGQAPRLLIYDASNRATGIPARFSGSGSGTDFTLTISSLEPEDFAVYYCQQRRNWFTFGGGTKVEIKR displays Fluorescence Signal Value of 5130

According to the records, this binder ADI-10085 (antibody, human IgG2, kappa, V domains shown, IgG) VH: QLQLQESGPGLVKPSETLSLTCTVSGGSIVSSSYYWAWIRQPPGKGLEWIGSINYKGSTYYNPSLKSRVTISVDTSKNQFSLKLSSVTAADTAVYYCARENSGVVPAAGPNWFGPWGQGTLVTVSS VL: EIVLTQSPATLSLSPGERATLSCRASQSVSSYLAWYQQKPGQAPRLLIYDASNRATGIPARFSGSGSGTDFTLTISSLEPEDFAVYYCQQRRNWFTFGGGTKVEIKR displays Fluorescence Signal Value of 5090

According to the records, this binder Lodelcizumab (antibody, V domains shown) VH: QVQLVQSGAEVKKPGASVKVSCKASGYTFSTMYMSWVRQAPGQGLEWMGRIDPANEHTNYAQKFQGRVTMTRDTSISTAYMELSRLTSDDTAVYYCARSYYYYNMDYWGQGTLVTVSS VL: QIVLTQSPATLSVSPGERATLSCRASQSVSYMHWYQQKPGQAPRLLIYGVFRRATGIPDRFSGSGSGTDFTLTIGRLEPEDFAVYYCLQWSSDPPTFGQGTKLEIK displays Fluorescence Signal Value of 8760
